Target: Steroid 17-alpha-hydroxylase/17,20 lyase (Rattus norvegicus)
Sequence (P11715 whole entry): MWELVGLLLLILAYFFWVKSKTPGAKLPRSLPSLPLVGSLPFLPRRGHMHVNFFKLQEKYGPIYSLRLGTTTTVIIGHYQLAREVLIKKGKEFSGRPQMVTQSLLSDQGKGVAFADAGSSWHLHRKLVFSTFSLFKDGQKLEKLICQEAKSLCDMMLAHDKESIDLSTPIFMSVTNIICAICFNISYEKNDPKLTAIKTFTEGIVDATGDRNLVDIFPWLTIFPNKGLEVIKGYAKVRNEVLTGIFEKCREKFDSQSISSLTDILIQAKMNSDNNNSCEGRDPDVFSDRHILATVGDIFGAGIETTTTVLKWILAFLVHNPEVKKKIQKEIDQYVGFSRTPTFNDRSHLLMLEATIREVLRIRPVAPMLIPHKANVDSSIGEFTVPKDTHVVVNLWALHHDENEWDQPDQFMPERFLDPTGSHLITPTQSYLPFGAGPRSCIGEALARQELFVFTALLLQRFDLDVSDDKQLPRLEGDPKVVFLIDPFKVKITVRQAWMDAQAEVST
Experiment: Inhibition of rat microsomal 17-alpha-hydroxylase component of P450-17alpha
PROPERTY LABEL: IC50 (µM)

Ic1ccc(Cn2ccnc2)cc1 | 10.1
Brc1ccc(Cn2ccnc2)cc1 | 53.4
Brc1cc(Br)cc(Cn2ccnc2)c1 | 25.9
FC(F)(F)c1cc(Cn2ccnc2)cc(C(F)(F)F)c1 | 245
Cc1ccc(Cn2ccnc2)cc1 | 50.6
Clc1ccc(Cn2ccnc2)cc1 | 31.6
c1ccc(Cn2ccnc2)cc1 [BENZYLIMIDAZOLE] | 215

a. N#Cc1ccc(Cn2ccnc2)cc1
b. Clc1cc(Cl)cc(Cn2ccnc2)c1
Could you please tell me which of these two has the higher IC50: a or b ? // output: label of the selected item
a
(a: 40.3 µM, b: 22.6 µM)
